Parameter: pIC50. Scope: all listed entries.
target: EP4 (Homo sapiens, UniProt P35408); construct: BT549 breast cancer cells, express high endogenous EP4 levels and very low EP2 levels; host or cells: BT549 breast cancer cells; assay: hEP4 cAMP Assay (BT549 breast cancer cells, HTRF cAMP, PGE2 6 nM); format: cell-based; settings: antagonistic activity, PGE2 6 nM (EC80)
Sequence (P35408 whole entry): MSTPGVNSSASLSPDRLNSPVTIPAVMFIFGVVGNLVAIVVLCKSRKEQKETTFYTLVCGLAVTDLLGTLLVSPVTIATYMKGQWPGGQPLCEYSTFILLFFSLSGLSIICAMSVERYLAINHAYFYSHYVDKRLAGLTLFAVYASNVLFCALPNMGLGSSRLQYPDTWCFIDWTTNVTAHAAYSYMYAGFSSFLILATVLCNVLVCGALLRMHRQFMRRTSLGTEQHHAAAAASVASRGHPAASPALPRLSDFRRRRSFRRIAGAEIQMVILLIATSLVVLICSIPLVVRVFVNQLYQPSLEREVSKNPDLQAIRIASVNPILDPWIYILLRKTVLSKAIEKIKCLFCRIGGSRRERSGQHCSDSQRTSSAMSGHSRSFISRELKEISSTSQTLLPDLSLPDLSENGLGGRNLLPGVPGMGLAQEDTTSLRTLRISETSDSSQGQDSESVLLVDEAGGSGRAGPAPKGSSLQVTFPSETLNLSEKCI
Keep in mind that pIC50 stands for -log10 of concentration in molar terms.

Below are worked cases with known answers.
Cn1ccc2c(CCNc3cc(-c4ccc(C(=O)O)c(OC5CCC5)c4)ncn3)cccc21
5.98
CCOc1cc(-c2cc(NCCc3c(OC)ccc4ccccc34)ncn2)sc1C(=O)NS(C)(=O)=O
7.07

Reported pIC50 for COc1ccc2ccccc2c1CCNc1cc(-c2ccc(C(=O)O)c(OCCO)c2)ncn1 : what is it?
6.53

Reported pIC50 for CCOc1cc(-c2cc(NCCc3c(C)c(C)cc4ccccc34)ncn2)ccc1C(=O)O : what is it?
6.05

Reported pIC50 for CCOc1cc(-c2cc(NCCc3c(OC)ccc4ccccc34)ncn2)ccc1C(=O)O : what is it?
6.53

# credit: patent US11446298B2
